Test system: MCF7
PROTOCOL TEXT: NCI tumour cell line growth inhibition, 48 h
The source made the active and inactive calls. Cut-off read from the data, not from the text of the source: active = GI50 up to about 1.1 µM and inactive = higher.
Your answer must be one of the following: active, inactive

{"MOLECULE": "O=S(=O)(c1ccccc1)c1ccc(/N=N/O)nc1", "CLASS ASSIGNMENT": "inactive"}

Q) Name the outcome recorded for `CCOc1ccc(/C(C=O)=C(\Cl)c2ccc(OC)cc2)cc1` in the assay.
A) inactive

Q) Now the molecule `O=C(O)COc1cccc2ccccc(=O)c12`
A) inactive

Q) Now the molecule CC(C)(C)O/C=C1/C(=O)OC2C[C@@H](O[Si](C)(C)C(C)(C)C)CC12 (stereo partly drawn)
A) inactive

Q) Now the molecule S=C(/N=C1/NCC(CN2CCN(c3ccccc3)CC2)O1)Nc1ccccc1 (stereo not drawn)
A) inactive

Q) Now the molecule `N#Cc1c(OCCF)c2ccccc2n2c1nc1ccccc12`
A) inactive

Q) Now the molecule `Cc1ccc(S(=O)(=O)N2C[C@](O)(c3ccccc3)[C@H]2C)cc1`
A) inactive

Q) Now the molecule CCC(C)N1CN(c2ccccc2)C2(CCN(CCCC3(c4ccc(F)cc4)OCCO3)CC2)C1=O (stereo not drawn)
A) inactive

Q) Now the molecule CC(C)=CC1CC(C)C2(CCC3(C)CC4C(C(=O)CC4(C)O)/C(C=O)=C\CC32)O1 (stereo not drawn)
A) active

* * *

GI50: recorded values
Tested on: MDA-N
PROTOCOL TEXT: NCI tumour cell line growth inhibition, 48 h
Activity calls are given as the source filed them. Cut-off read from the data, not from the text of the source: active = GI50 up to about 1.1 µM and inactive = higher.

Examples from the recorded data:
{"COMPOUND": "S=c1scc(-c2ccc(Cl)cc2)n1OC1CCCC1", "OBSERVED": "21.6 µM (inactive)"}
{"COMPOUND": "NC(Cc1ccccc1)C(=O)OCN1C(=O)C2C3C=CC(C2C1=O)C1C(=O)N(COC(=O)C(N)Cc2ccccc2)C(=O)C31 (configuration not stated)", "OBSERVED": "> 100 µM (inactive)"}
{"COMPOUND": "COC(=O)CCC(C)[C@H]1CCC2C3C(C[C@H](OC(C)=O)[C@@]21C)[C@@]1(C)CCC2(C[C@H]1C[C@H]3OC(C)=O)OOC1(CCCCCCC1)OO2 (some centres not stated)", "OBSERVED": "> 100 µM (inactive)"}
{"COMPOUND": "CO[C@@H](C(=O)OC1C=CC2(CC1)C(=O)N(C)c1ccccc12)c1ccccc1 (some centres not stated)", "OBSERVED": "> 100 µM (inactive)"}
{"COMPOUND": "O=C(O)COc1cccc2ccccc(=O)c12", "OBSERVED": "> 100 µM (inactive)"}
{"COMPOUND": "O=C(OC[C@H]1C[C@H]2C(=O)CCC[C@H]2O1)c1ccccc1", "OBSERVED": "> 100 µM (inactive)"}
{"COMPOUND": "N#CCCN(CCN(CCN(C(=O)Nc1ccccc1)c1ccccc1)C(=O)Nc1ccccc1)C(=O)Nc1ccccc1", "OBSERVED": "> 100 µM (inactive)"}
{"COMPOUND": "CON(C)c1nc(N(C)OC)nc(N(C)OC)n1", "OBSERVED": "> 10 µM (inactive)"}
{"COMPOUND": "CC(C)(C)O/C=C1/C(=O)OC2C[C@@H](O[Si](C)(C)C(C)(C)C)CC12 (some centres not stated)", "OBSERVED": "> 100 µM (inactive)"}
{"COMPOUND": "O=P(O)(O)c1ccc2c(c1)OCCOCCOCCOCCO2", "OBSERVED": "> 100 µM (inactive)"}

Q) Consider the compound `O=C(/C=C/c1ccc(OCc2ccccc2)cc1)NCc1ccc(C(=O)NCCc2c[nH]c3ccccc23)cc1` and give its measured GI50.
A) > 100 µM (inactive)

Q) Now the compound `COc1ccc2c(ccc3c(C(=O)NCCN(C)CCNC(=O)c4cn(C)c5c4ccc4cc(OC)ccc45)cn(C)c32)c1`
A) 1.57 µM (inactive)

Q) Now the compound CCOC(=O)C(NC(=O)c1ccccc1)(c1ccc(S(=O)(=O)Nc2onc(C)c2C)cc1)C(F)(F)F (configuration not stated)
A) > 100 µM (inactive)

Q) Now the compound O=C(CC(C(=O)c1ccco1)c1ccco1)c1ccco1 (configuration not stated)
A) > 100 µM (inactive)

Q) Now the compound O=CC(O)C(O)C(O)C(O)C(=O)NCCCCCCCCCCCCNC(=O)C(O)C(O)C(O)C(O)C=O (configuration not stated)
A) > 100 µM (inactive)

Q) Now the compound COC(=O)[C@]1(C)CC[C@]2(C)CC[C@]3(C)C4[C@H]5Oc6c(cc7c(c6C)CCC6[C@@]7(C)CC[C@@]7(C)C8[C@](C)(CCC[C@@]8(C)C(=O)OC)CC[C@]67C)O[C@H]5c5c(cc6c(c5C)O[C@@]5(C)C7=CC=C8[C@@](C)(CC[C@@]9(C)[C@@H]%10C[C@](C)(C(=O)OC)CC[C@]%10(C)CC[C@]89C)C7=CC(=O)[C@@]5(O)O6)[C@]4(C)CC[C@@]3(C)C2C1 (some centres not stated)
A) 1.93 µM (inactive)

Q) Now the compound `Cc1cc(C)nc(NS(=O)(=O)c2ccc(NNC(=O)c3cccc4c(=O)c5ccccc5[nH]c34)cc2)n1`
A) 75.9 µM (inactive)

* * *

Tested on: NCI-H522
PROTOCOL TEXT: NCI tumour cell line growth inhibition, 48 h
Calls of active or inactive are those of the source. Rule as the data show it: active = GI50 up to about 1.1 µM and inactive = higher. Square brackets hold non-standard residues; d marks the D form. Peptide text beside a SMILES is read from it. * marks the point of attachment. Phe(4-NO2) = N[CH](Cc1ccc([N+](=O)[O-])cc1)C(=O)O; Cbz = O=C(OCc1ccccc1)*
READOUT TYPE: GI50

Examples from the recorded data:
{"COMPOUND": "COc1ccc(/C(Cl)=C(\\C=O)c2ccc(F)cc2)cc1OC", "OBSERVED": "12.3 µM (inactive)"}
{"COMPOUND": "CCCC(=O)NC1=C(Cl)C(=O)c2ccccc2C1=O", "OBSERVED": "1.13 µM (inactive)"}
{"COMPOUND": "COS(C)(=O)=O", "OBSERVED": "> 2 µM (inactive)"}

Q) Consider the compound `Cc1nc2ccccc2c(=O)n1NC(=O)c1ccccc1O` and give its measured GI50.
A) > 100 µM (inactive)

Q) Now the compound `CCOC(=O)c1nc2ccc(C(F)(F)F)cc2nc1NCc1cc(OC)c(OC)c(OC)c1`
A) 37.1 µM (inactive)

Q) Now the compound CCOC(=O)CCC(NC(=O)OCc1ccccc1)C(=O)NC(CCC(=O)OCC)C(=O)NC(CCC(=O)OCC)C(=O)NC(CCC(=O)OCC)C(=O)NC(CCC(=O)OCC)C(=O)NC(Cc1ccc([N+](=O)[O-])cc1)C(=O)NC(CCC(=O)OCC)C(=O)NC(CCC(=O)OCC)C(=O)NC(CCC(=O)OCC)C(=O)NC(CCC(=O)OCC)C(=O)NC(CCC(=O)OCC)C(=O)OCC (centres undefined) (Cbz-E(OEt)E(OEt)E(OEt)E(OEt)E(OEt)[Phe(4-NO2)]E(OEt)E(OEt)E(OEt)E(OEt)E(OEt)-OEt; configuration not given here)
A) > 50 µM (inactive)

* * *

Tested on: IGROV-1
PROTOCOL TEXT: NCI tumour cell line growth inhibition, 48 h
Calls of active or inactive are those of the source. Rule as the data show it: active = GI50 up to about 1.1 µM and inactive = higher.
Your answer must be one of the following: True = active, False = inactive

Reference set, count: 3
{"COMPOUND": "COc1cc([C@H]2c3[nH]c4ccccc4c3C[C@H]3COC(=O)N32)cc(OC)c1O", "CLASS ASSIGNMENT": "True"}
{"COMPOUND": "Cc1c2ccncc2c(C)c2c1sc1ccccc12", "CLASS ASSIGNMENT": "False"}
{"COMPOUND": "OCCCCCCCCCCCOc1ccc(C2OCC3(CO2)COC(c2ccc(OCCCCCCCCCCCO)cc2)OC3)cc1 (centres undefined)", "CLASS ASSIGNMENT": "False"}

Q) Name the outcome recorded for CNC(=O)NCCCCC(NC(C)=O)C(=O)NCc1ccccc1 (centres undefined) in the assay.
A) False

Q) Now the compound NC(CCc1nc(-c2ccccc2)cs1)C(=O)O (centres undefined)
A) False

Q) Now the compound `Cc1cccc2[s+]snc12`
A) False

Q) Now the compound `O=C(NCCCCCCNC(=O)OCCSCCn1cc(C(=O)NC(=O)OCc2ccccc2)c(=O)[nH]c1=O)OCCSCCn1cc(C(=O)NC(=O)OCc2ccccc2)c(=O)[nH]c1=O`
A) False

Q) Now the compound COc1cccc2c1OC(c1ccc(Cl)cc1)C([N+](=O)[O-])=C2 (centres undefined)
A) False

Q) Now the compound `O=C(O)COc1cccc2ccccc(=O)c12`
A) False

Q) Now the compound `CCCC[C@H]1CCN2C[C@@H](O)[C@@H](O)[C@H]2[C@@H]1O`
A) False

Q) Now the compound `O=[PH](O)c1cc2c3ccccc3ccc2c2ccccc12`
A) False

Q) Now the compound `O=c1cc(/N=N\c2ccc(Cl)c(Cl)c2)[nH]c(=O)[nH]1`
A) False

Q) Now the compound `O=C(O)CCC(=O)Oc1ccc(O)c2c1CCCC2=O`
A) False

Q) Now the compound `O=C1C(Br)=C(c2ccccc2)O/C1=C/C(=O)c1ccc(Br)cc1`
A) False

Q) Now the compound `CC1(C)CC(=O)C(C(=O)Nc2cccs2)=C(O)C1`
A) False

Q) Now the compound O=C(O)C(Cc1ccccc1)N1C(=O)c2ccccc2C1=O (centres undefined)
A) False

Q) Now the compound `N#C/C(=C1\N=NC(N)=C(c2ccc(Cl)cc2)C1=O)c1ccc(Cl)cc1`
A) False

Q) Now the compound O=C(CC1(O)C(=O)Nc2c(Cl)cc(Cl)cc21)c1ccc(Br)cc1 (centres undefined)
A) False

Q) Now the compound CC(/C=C/C=C\C=C\C=C(/C)C(=O)NC(C)CO)=C\C(C)C(O)/C(C)=C/C(C)CCc1ccccc1 (centres undefined)
A) False
